# test.method.notes: recombinant barcode read abundance after kanamycin selection (control-corrected) (log10(CPM+1)); higher = more efficient recombination; sequences stand for … in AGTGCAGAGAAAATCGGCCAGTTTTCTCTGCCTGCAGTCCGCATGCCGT…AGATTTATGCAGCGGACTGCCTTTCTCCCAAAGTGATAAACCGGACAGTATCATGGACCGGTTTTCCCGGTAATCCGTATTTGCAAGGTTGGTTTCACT; site = the 11-nt target;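 note: IS621 recombinase and bridge RNA in Escherichia coli cells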
Use criterion met when the recorded recombinant barcode read abundance (log10) is no lower than 0.3; use criterion not met when it is lower.

TGGTATCCTTGGGTTCTAACCTGTTGCCT (site TGGTATACTAG)
criterion not met
TAACCTCCTTGGGTTCTAACCTGTTGCCT (site TAACCTACTAG)
criterion not met
CTAAACCCTTGGGTTCTAACCTGTTGCGT (site CTAAACCCTAC)
criterion met
AACTTCACTTGGGTTCTAACCTGTTGCCT (site AACTTCACTAG)
criterion met
GTAGGGTCTTGGGTTCTAACCTGTTGCCT (site TTGGGGTCTAG)
criterion met

Input line: Determine whether measured recombinant barcode read abundance (log10) meets or exceeds 0.3 for AGTAAGACTTGGGTTCTAACCTGTTGCAT (site AGTAAGACTAC)
Output line: criterion not met

Input line: Hi team, for AACATCACTTGGGTTCTAACCTGTTGCCG (site AACATCACTCG) , is the recorded recombinant barcode read abundance (log10) at or above 0.3?
Output line: criterion met

Input line: Can CTGAAGCCTTGGGTTCTAACCTGTTGCCT (site CTGAAGCCTAG) be said to have recombinant barcode read abundance (log10) at or above 0.3?
Output line: criterion met

Input line: Answer whether recombinant barcode read abundance (log10) of ACTTGCCCTTGGGTTCTAACCTGTTGCCT (site ATTTGCCCTAG) is greater than or equal to 0.3.
Output line: criterion met

Input line: Exam item: decide whether the reported recombinant barcode read abundance (log10) for TTGAATTCTTGGGTTCTAACCTGTTGCTT (site TTGTATTCTAG) is at least 0.3.
Output line: criterion not met
